System: LKB1;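 note: KINOMEscan kinase panel screen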
Construct: gene STK11
Assay Conditions: concentration: 1 μM, replicates: in singlicate; n = 1
Decision: %Inh compared against 4%; not below it gives y, below it gives n.

{"Structure Smiles String": "COC(=O)c1c(-c2ccccc2)c2cc(Cl)ccc2c(=O)n1Cc1ccc(S(C)(=O)=O)cc1", "Group": "n"}
{"Structure Smiles String": "CSc1nn2c(=O)cc(N3CCOCC3)nc2n1Cc1cccc(Cl)c1Cl", "Group": "n"}
{"Structure Smiles String": "Cl.Cl.c1ccc(-c2cc3ccncc3cc2OC2CCNCC2)cc1", "Group": "n"}
{"Structure Smiles String": "Cn1ccc2ncnc(Oc3ccc(NC(=O)Nc4cccnc4)c(Cl)c3)c21", "Group": "y"}
{"Structure Smiles String": "Cc1ccc(NC(=O)c2cccc(C#N)c2)cc1-c1ccc(C(=O)Nc2ccncc2)cc1", "Group": "n"}
{"Structure Smiles String": "FC(F)(F)c1ccc(-c2nn3ncccc3c2-c2ccnc(Nc3cccc(C(F)(F)F)c3)n2)cc1", "Group": "n"}
{"Structure Smiles String": "N#Cc1ccc(Oc2ccc(Nc3ncnc4cc[nH]c34)cc2Cl)cc1", "Group": "y"}
{"Structure Smiles String": "Fc1ccc(Nc2nccc(-c3c(-c4ccc(Cl)cc4)nn4ncccc34)n2)cc1F", "Group": "y"}
{"Structure Smiles String": "Cc1ccc(O)cc1Nc1cc(C(F)(F)F)nc2ccc(-c3ccncc3)cc12", "Group": "n"}
{"Structure Smiles String": "Nc1nc(-c2ccccn2)c(-c2ccnc3ccccc23)s1", "Group": "y"}
{"Structure Smiles String": "COc1cc2ncnc(Nc3ccc(OCc4ccccc4Br)c(Cl)c3)c2cc1OC.Cl", "Group": "n"}
{"Structure Smiles String": "Fc1cccc(COc2ccc(Nc3ncnc4sc(-c5ccc[nH]5)cc34)cc2Cl)c1", "Group": "y"}
{"Structure Smiles String": "C[C@H]1CC[C@@H](C(=O)Nc2ccccc2)CN1c1cc(-c2ccc3c(N)n[nH]c3c2)nc(N)n1", "Group": "y"}
{"Structure Smiles String": "O=C(c1ccc(-c2cc(-c3c[nH]nc3-c3ccccn3)ccn2)cc1)N1CCCC1", "Group": "n"}
{"Structure Smiles String": "Nc1nc(-c2ccc3c(N)n[nH]c3c2)cc(N2CCC[C@@H](C(=O)Nc3ccccc3)C2)n1.O=C(O)C(F)(F)F.O=C(O)C(F)(F)F", "Group": "y"}
